Where do the numbers come from? From the supplement of paper PMC10567573.

For each entry below, report its protein stability index value.
B1: HDAC6 (parent)
chain: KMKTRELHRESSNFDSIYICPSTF

# Variants of: B1
# Procedure summary: protein stability index of a GFP-peptide fusion (GPS, HEK-293T) (PSI 1-6); higher = more stable;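 note: lentivirally expressed fusions sorted by FACS into six bins by GFP to DsRed ratio, PSI derived from sequencing read proportions per bin multiplied by bin number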
# Condition summary: c terminus: a fixed tail appended
Answers are plain numbers.

Illustrative cases are given below, each with its answer.
R5K; 2.38
F24N; 2.95
H8E; 2.32
K1C; 1.7
E6D; 2.85

Batch request: protein stability index per item, same order as input.
1. H8S
2. F24G
3. E10R

# output
2.92
3.15
2.1

I would be grateful if you could provide protein stability index for each of the following entries.
1. K3S
2. S12N
3. S12H

# output
1: 2.81; 2: 2.04; 3: 2.46

List the reported protein stability index of each variant below.
1. H8R
2. E6K
3. I19H
4. P21G

# output
1. 2.22
2. 2
3. 3.1
4. 1.95
